experiment: Microsomal stability, human liver microsomes
Format: in vitro ADME
applied-conditions: pH 7.4; human liver microsomes; read-out: HLM Clint(mic)
attribute-measured: microsomal CLint at 1 μM (µL/min/mg)

record_smiles=Fc1ccc(-c2cnn3c(NCc4ccccn4)cc(-c4ccsc4)nc23)cc1 value_modifier== observed_result=47
record_smiles=CC(C)c1ccc(-c2cc(NCc3ccccn3)n3ncc(-c4ccc(F)cc4)c3n2)cc1 value_modifier=< observed_result=9.6
record_smiles=COc1ccc(CNc2cc(-c3ccccc3)nc3c(-c4ccc(F)cc4)cnn23)nc1 value_modifier=< observed_result=9.6
record_smiles=CN(C)CC#Cc1ccc(CNc2cc(-c3ccccc3)nc3c(-c4ccc(F)cc4)cnn23)nc1 value_modifier=< observed_result=9.6
record_smiles=COc1ccc(-c2cc(NCc3ccccn3)n3ncc(-c4ccc(F)cc4)c3n2)cc1 value_modifier== observed_result=18
record_smiles=Fc1ccc(-c2cnn3c(NCc4ccccn4)cc(C4=CCCC4)nc23)cc1 value_modifier== observed_result=35
record_smiles=COc1ccnc(CNc2cc(-c3ccccc3)nc3c(-c4ccc(F)cc4)cnn23)c1 value_modifier=< observed_result=9.6
record_smiles=Fc1ccc(-c2cnn3c(NCc4cc(N5CCCCC5)ccn4)cc(-c4ccccc4)nc23)cc1 value_modifier== observed_result=12
record_smiles=Fc1ccc(-c2cnn3c(NCc4ccccn4)cc(-c4cccnc4)nc23)cc1 value_modifier== observed_result=63
record_smiles=Cc1cccc(-c2cc(NCc3ccccn3)n3ncc(-c4ccc(F)cc4)c3n2)c1 value_modifier=< observed_result=9.6
record_smiles=Fc1ccc(-c2cnn3c(NCc4ccccn4)cc(C4CC4)nc23)cc1 value_modifier== observed_result=76
record_smiles=Fc1ccc(-c2cnn3c(NCc4ccccn4)cc(-c4ccccc4)nc23)cc1 value_modifier== observed_result=13
record_smiles=Fc1ccc(-c2cnn3c(NCc4ccccn4)cc(C4=CCCCC4)nc23)cc1 value_modifier== observed_result=19
record_smiles=Fc1ccc(-c2cnn3c(NCc4ccc(Cl)cn4)cc(-c4ccccc4)nc23)cc1 value_modifier=< observed_result=9.6
record_smiles=Fc1ccc(-c2cnn3c(NCc4ccc(F)cn4)cc(-c4ccccc4)nc23)cc1 value_modifier== observed_result=13
record_smiles=COc1ccc(-c2cnn3c(NCc4ccccn4)cc(-c4ccccc4)nc23)cc1 value_modifier== observed_result=22
record_smiles=CC(C)(C)c1ccc(-c2cc(NCc3ccccn3)n3ncc(-c4ccc(F)cc4)c3n2)cc1 value_modifier=< observed_result=9.6
record_smiles=Fc1ccc(-c2cnn3c(NCc4ccccn4)cc(-c4ccccc4F)nc23)cc1 value_modifier== observed_result=20
record_smiles=Fc1ccc(-c2cnn3c(NCc4ccccn4)cc(-c4cccs4)nc23)cc1 value_modifier== observed_result=83
record_smiles=Cc1ccnc(CNc2cc(-c3ccccc3)nc3c(-c4ccc(F)cc4)cnn23)c1 value_modifier=< observed_result=9.6
record_smiles=Fc1ccc(-c2cnn3c(NCc4ccccn4)cc(-c4ccoc4)nc23)cc1 value_modifier== observed_result=74
record_smiles=Fc1ccc(-c2cnn3c(NCc4ccccn4)cc(-c4ccc(OC(F)(F)F)cc4)nc23)cc1 value_modifier== observed_result=16

Where these numbers come from: paper PMC9506485
